What IC50 was measured for each of the following?
Tested on: HCT116
PROTOCOL TEXT: MTS cytotoxicity assay, HCT116
Assay type: cell-based
ASSAY SETUP: Homo sapiens, HCT-116, 72 h, 3-day incubation
Give bare numbers, in µM.

MOLECULE: C=C(C)[C@@H]1CC[C@]2(C(=O)O)CC[C@]3(C)[C@H](CC[C@@H]4[C@@]5(C)CC[C@H](OC(=O)CC(C)(C)C(=O)O)C(C)(C)[C@@H]5CC[C@]43C)[C@@H]12 [BT, reference compound]
PROPERTY NAME: IC50
NUMERIC RESULT: 14.2

Now turn to the next molecule.
Look up IC50 for this molecule: C=C(C)[C@@H]1CC[C@]2(C(=O)NCCCNC(=O)OC(C)(C)C)CC[C@]3(C)[C@H](CC[C@@H]4[C@@]5(C)CC[C@H](OC(=O)CC(C)(C)C(=O)O)C(C)(C)[C@@H]5CC[C@]43C)[C@@H]12 [Compound 8]
13.2
